Taken from ChEMBL document CHEMBL3608282.

experiment: Cytotoxicity against human HuH7 cells; type: cell-based; settings: huh-7
Known CC50 of a selection of compounds

Query: CC50; subject: COC(=O)N[C@@H](CSCc1ccccc1)C(=O)N1CCC[C@H]1c1ncc(-c2ccc(-c3ccc(-c4cnc([C@@H]5CCCN5C(=O)[C@@H](NC(=O)OC)C(C)C)[nH]4)cc3)cc2)[nH]1
> 330 µM

Same thing, different compound: COC(=O)N[C@@H](CCSC)C(=O)N1CCC[C@H]1c1ncc(-c2ccc(-c3ccc(-c4cnc([C@@H]5CCCN5C(=O)[C@@H](NC(=O)OC)C(C)C)[nH]4)cc3)cc2)[nH]1
> 330 µM

Continuing:
Query: CC50; subject: COC(=O)N[C@H](C(=O)N1CCC[C@H]1c1nc(-c2ccc(-c3ccc(-c4c[nH]c([C@@H]5CCCN5C(=O)[C@@H](NC(=O)OC)C(C)C)n4)cc3)cc2)c[nH]1)C(C)C
> 15 µM

Same thing, different compound: COC(=O)N[C@@H](CSC(C)(C)C)C(=O)N1CCC[C@H]1c1ncc(-c2ccc(-c3ccc(-c4cnc([C@@H]5CCCN5C(=O)[C@@H](NC(=O)OC)C(C)C)[nH]4)cc3)cc2)[nH]1
> 330 µM

* * *

test system: Hepatitis C virus; test: Antiviral activity against HCV genotype 2a; type: functional, organism-based, Hepacivirus hominis
Known EC50 of a selection of compounds
Lab note: write values as number then unit, every time.

Solved entries (count: 3):
Query: EC50; subject: COC(=O)N[C@@H](CSC(C)(C)C)C(=O)N1CCC[C@H]1c1ncc(-c2ccc(-c3ccc(-c4cnc([C@@H]5CCCN5C(=O)[C@@H](NC(=O)OC)C(C)C)[nH]4)cc3)cc2)[nH]1
55 pM

Same thing, different compound: COC(=O)N[C@@H](CCSC)C(=O)N1CCC[C@H]1c1ncc(-c2ccc(-c3ccc(-c4cnc([C@@H]5CCCN5C(=O)[C@@H](NC(=O)OC)C(C)C)[nH]4)cc3)cc2)[nH]1
27 pM

Same thing, different compound: COC(=O)N[C@H](C(=O)N1CCC[C@H]1c1nc(-c2ccc(-c3ccc(-c4c[nH]c([C@@H]5CCCN5C(=O)[C@@H](NC(=O)OC)C(C)C)n4)cc3)cc2)c[nH]1)C(C)C
24 pM

Here's the next entry for you.
Query: EC50; subject: COC(=O)N[C@@H](CSCc1ccccc1)C(=O)N1CCC[C@H]1c1ncc(-c2ccc(-c3ccc(-c4cnc([C@@H]5CCCN5C(=O)[C@@H](NC(=O)OC)C(C)C)[nH]4)cc3)cc2)[nH]1
39 pM
